Data origin: patent EP4745137A1

- measurementTarget: human Cereblon WT GST-tagged protein (Homo sapiens)
- Construct: purchased CISBIO 64BDCRBNPEH
- Sequence (Q96SW2 whole entry): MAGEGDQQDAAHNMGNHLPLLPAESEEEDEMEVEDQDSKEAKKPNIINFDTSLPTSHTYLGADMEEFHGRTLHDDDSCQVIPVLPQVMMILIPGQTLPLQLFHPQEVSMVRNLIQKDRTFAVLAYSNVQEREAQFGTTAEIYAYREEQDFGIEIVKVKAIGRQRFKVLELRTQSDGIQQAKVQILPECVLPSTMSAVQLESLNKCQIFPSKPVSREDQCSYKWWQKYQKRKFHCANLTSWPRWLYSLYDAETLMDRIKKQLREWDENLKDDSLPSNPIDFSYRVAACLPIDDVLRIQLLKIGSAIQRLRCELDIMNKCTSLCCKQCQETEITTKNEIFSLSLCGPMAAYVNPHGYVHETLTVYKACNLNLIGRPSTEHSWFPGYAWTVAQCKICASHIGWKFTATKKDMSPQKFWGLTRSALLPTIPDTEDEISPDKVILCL
- methodDescription: CRBN-binding affinity by HTRF (CEREBLON BINDING kit)
- conditionDetails: HTRF inhibitory activity, CEREBLON BINDING kit; read-out: HTRF IC50
pIC50: −log10 of the molar value.
quantity: pIC50

Worked examples, 2 compounds total:
Cc1nc(N2CCN(Cc3ccc4c(c3)C(=O)N(C3CCC(=O)NC3=O)C4=O)CC2)c2c3c(sc2n1)CCC3 (centres unmarked) : 6.00 to 6.30
O=C1CCC(N2Cc3cc(CN4CC=C(c5ncnc6sc(-c7ccccc7)cc56)CC4)ccc3C2=O)C(=O)N1 (centres unmarked) : 6.00 to 6.30

input: Data request, read-out pIC50, for O=C1CCC(N2Cc3cc(CN4CCC(c5ccccc5Cl)CC4)ccc3C2=O)C(=O)N1 (centres unmarked)
output: 6.00 to 6.30

input: Data request, read-out pIC50, for O=C1CCC(N2Cc3cc(CN4CCC(c5ccccc5F)CC4)ccc3C2=O)C(=O)N1 (centres unmarked)
output: 6.00 to 6.30

input: Data request, read-out pIC50, for Cc1ccsc1C1=CCN(Cc2ccc3c(c2)C(=O)N(C2CCC(=O)NC2=O)C3=O)CC1 (centres unmarked)
output: 6.00 to 6.30

input: Data request, read-out pIC50, for Cc1nc(C2CCN(Cc3ccc4c(c3)C(=O)N(C3CCC(=O)NC3=O)C4=O)CC2)c2c(-c3ccccc3)csc2n1 (centres unmarked)
output: 6.00 to 6.30

input: Data request, read-out pIC50, for Cc1cccc(N2CCN(Cc3ccc4c(c3)CN(C3CCC(=O)NC3=O)C4=O)CC2)n1 (centres unmarked)
output: 6.00 to 6.30

input: Data request, read-out pIC50, for O=C1CCC(N2Cc3cc(CN4CCN(c5ccncc5F)CC4)ccc3C2=O)C(=O)N1 (centres unmarked)
output: 5.82 to 6.00

input: Data request, read-out pIC50, for O=C1CCC(N2Cc3cc(CN4CCN(c5ccccc5Br)CC4)ccc3C2=O)C(=O)N1 (centres unmarked)
output: 6.00 to 6.30

input: Data request, read-out pIC50, for O=C1CCC(N2Cc3cc(CN4CCN(c5ccc(F)cn5)CC4)ccc3C2=O)C(=O)N1 (centres unmarked)
output: 6.00 to 6.30

input: Data request, read-out pIC50, for O=C1CCC(N2Cc3cc(CN4CCN(c5ccncc5)CC4)ccc3C2=O)C(=O)N1 (centres unmarked)
output: 6.00 to 6.30

input: Data request, read-out pIC50, for O=C1CCC(N2Cc3cc(CN4CCN(c5ccc(Cl)cc5Cl)CC4)ccc3C2=O)C(=O)N1 (centres unmarked)
output: 5.82 to 6.00

input: Data request, read-out pIC50, for Cc1cc(Cl)cc(N2CCN(Cc3ccc4c(c3)CN(C3CCC(=O)NC3=O)C4=O)CC2)n1 (centres unmarked)
output: 6.00 to 6.30

input: Data request, read-out pIC50, for O=C1CCC(N2Cc3cc(CN4CCN(c5cccc(F)n5)CC4)ccc3C2=O)C(=O)N1 (centres unmarked)
output: 6.00 to 6.30

input: Data request, read-out pIC50, for O=C1CCC(N2Cc3cc(CN4CCN(c5ccc(Cl)nn5)CC4)ccc3C2=O)C(=O)N1 (centres unmarked)
output: 6.00 to 6.30

input: Data request, read-out pIC50, for O=C1CCC(N2Cc3cc(CN4CC5CCC4CN5c4cccc(Cl)c4Cl)ccc3C2=O)C(=O)N1 (centres unmarked)
output: > 6.30

input: Data request, read-out pIC50, for O=C1CCC(N2Cc3cc(CN4CC=C(c5ccnc(F)c5F)CC4)ccc3C2=O)C(=O)N1 (centres unmarked)
output: 6.00 to 6.30

input: Data request, read-out pIC50, for O=C1CCC(N2Cc3cc(CN4CCC(N5CCc6cc(F)ccc65)CC4)ccc3C2=O)C(=O)N1 (centres unmarked)
output: > 6.30

input: Data request, read-out pIC50, for O=C1CCC(N2C(=O)c3ccc(CN4CC=C(c5cncc(Cl)c5Cl)CC4)cc3C2=O)C(=O)N1 (centres unmarked)
output: 6.00 to 6.30

input: Data request, read-out pIC50, for O=C1CCC(N2Cc3cc(CN4CCN(c5ncccc5Cl)CC4)ccc3C2=O)C(=O)N1 (centres unmarked)
output: > 6.30

input: Data request, read-out pIC50, for O=C1CCC(N2Cc3cc(CN4CCN(c5cccs5)CC4)ccc3C2=O)C(=O)N1 (centres unmarked)
output: > 6.30

input: Data request, read-out pIC50, for O=C1CCC(N2C(=O)c3ccc(CN4CC=C(c5ncnc6sc7c(c56)CCC7)CC4)cc3C2=O)C(=O)N1 (centres unmarked)
output: 5.72 to 5.82

input: Data request, read-out pIC50, for O=C1CCC(N2Cc3cc(CN4CCN(c5c(Cl)cncc5Br)CC4)ccc3C2=O)C(=O)N1 (centres unmarked)
output: 6.00 to 6.30

input: Data request, read-out pIC50, for O=C1CCC(N2Cc3cc(CN4CCN(c5nccc(Cl)c5Br)CC4)ccc3C2=O)C(=O)N1 (centres unmarked)
output: 6.00 to 6.30

input: Data request, read-out pIC50, for CC(C)c1cc2c(N3CCN(Cc4ccc5c(c4)CN(C4CCC(=O)NC4=O)C5=O)CC3)ncnc2s1 (centres unmarked)
output: 6.00 to 6.30

input: Data request, read-out pIC50, for COc1cccc(N2CCN(Cc3ccc4c(c3)CN(C3CCC(=O)NC3=O)C4=O)CC2)c1 (centres unmarked)
output: 5.82 to 6.00

input: Data request, read-out pIC50, for Cc1sc2ncnc(N3CCN(Cc4ccc5c(c4)CN(C4CCC(=O)NC4=O)C5=O)CC3)c2c1C (centres unmarked)
output: 6.00 to 6.30
